System Tested: Adenosine receptors; A1 & A3 (Homo sapiens) (UniProt P30542+P0DMS8)
Sequence (P0DMS8 whole entry, looked up): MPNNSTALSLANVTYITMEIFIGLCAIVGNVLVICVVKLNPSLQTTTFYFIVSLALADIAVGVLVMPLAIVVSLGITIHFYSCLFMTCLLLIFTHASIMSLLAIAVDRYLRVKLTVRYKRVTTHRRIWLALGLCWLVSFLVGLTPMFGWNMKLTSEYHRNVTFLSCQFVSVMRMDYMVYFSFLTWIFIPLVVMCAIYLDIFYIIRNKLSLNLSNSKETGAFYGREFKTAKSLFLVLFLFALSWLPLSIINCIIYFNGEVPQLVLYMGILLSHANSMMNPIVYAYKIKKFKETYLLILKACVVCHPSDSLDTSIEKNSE
Sequence (P30542 whole entry, looked up): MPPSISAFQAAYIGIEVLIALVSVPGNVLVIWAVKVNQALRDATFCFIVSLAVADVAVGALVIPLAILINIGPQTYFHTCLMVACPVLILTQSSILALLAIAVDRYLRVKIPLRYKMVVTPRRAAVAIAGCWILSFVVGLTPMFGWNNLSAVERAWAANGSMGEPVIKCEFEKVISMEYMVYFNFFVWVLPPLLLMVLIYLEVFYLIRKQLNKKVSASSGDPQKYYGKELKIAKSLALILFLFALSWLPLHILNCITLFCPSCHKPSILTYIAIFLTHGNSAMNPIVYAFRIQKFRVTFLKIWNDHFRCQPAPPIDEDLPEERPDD
Assay Notes: Selectivity ratio of Ki for human adenosine A1 receptor to Ki for human adenosine A3 receptor
Measured Parameter: Ratio Ki
Just the number.

Examples from the recorded data:
- Molecule: "CC(C)(C)Cn1cc2c(Cl)nc(NC(=O)Cc3ccccc3)nc2n1"
  Ratio Ki: 2.9
- Molecule: "O=C(Nc1nc(Cl)c2cn(CCc3ccccc3)nc2n1)c1ccccc1"
  Ratio Ki: 0.4
- Molecule: "O=C(Nc1nc(Cl)c2cn(CCc3ccccc3)nc2n1)c1ccc(F)cc1"
  Ratio Ki: 0.02
- Molecule: "CC(C)n1cc2c(Cl)nc(N(C(=O)c3ccccc3)C(=O)c3ccccc3)nc2n1"
  Ratio Ki: 1.1

Then this molecule:
For reference, reported Ratio Ki for CC(C)n1cc2c(Cl)nc(NC(=O)c3ccccc3)nc2n1 stands at 1.5

Data provenance is ChEMBL document CHEMBL3112554.
